Each entry below carries its recorded melting point.

Reference set, count: 3
COMPOUND: Cc1nc2c(cnn2-c2ccccc2)c(=O)n1N=Cc1ccc(Cl)cc1
melting point: 195 to 196 °C
//
COMPOUND: Cc1nc2c(cnn2-c2ccccc2)c(=O)n1N=C1SCC(=O)N1c1ccc(Cl)cc1 [Compound 10b]
melting point: 264 to 267 °C
//
COMPOUND: Cc1nc2c(cnn2-c2ccccc2)c(=O)n1N=c1scc(-c2ccc(Cl)cc2)n1-c1ccc(Cl)cc1 [Compound 11f]
melting point: 272 to 275 °C

Incoming: Report measured melting point; entry is Cc1nc2c(cnn2-c2ccccc2)c(=O)n1N=C1SCC(=O)N1c1ccccc1 [Compound 10a]
Outgoing: 264 to 267 °C

Incoming: Report measured melting point; entry is `CCOC(=O)c1cc2nc3c(cnn3-c3ccccc3)c(=O)n2[nH]c1=O`
Outgoing: 172 to 173 °C

Numbers sourced from paper PMC3700072.
